These entries and their values trace back to patent US7842469B2.

protocol notes: Luciferase activity of purified RLuc mutants (light output integrated over 10 s, luminometer)
Format: biochemical
test conditions: coelenterazine-cp; relative to native enzyme
Activity (relative to RLuc) cp vs 0.5: less than gives Met; not less than gives Not met.

INSERT INTO results (molecule, answer_label) VALUES
  ('C124A/E195S/P196D: RLuc mutant C124A/E195S/P196D (protein) MASKVYDPEQRKRMITGPQWWARCKQMNVLDSFINYYDSEKHAENAVIFLHGNAASSYLWRHVVPHIEPVARCIIPDLIGMGKSGKSGNGSYRLLDHYKYLTAWFELLNLPKKIIFVGHDWGAALAFHYSYEHQDKIKAIVHAESVVDVIESWDEWPDIEEDIALIKSEEGEKMVLENNFFVETMLPSKIMRKLSDEEFAAYLEPFKEKGEVRRPTLSWPREIPLVKGGKPDVVQIVRNYNAYLRASDDLPKMFIESDPGFFSNAIVEGAKKFPNTEFVKVKGLHFSQEDAPDEMGKYIKSFVERVLKNEQ', 'Met'),
  ('C124A/F262L: RLuc mutant C124A/F262L (protein) MASKVYDPEQRKRMITGPQWWARCKQMNVLDSFINYYDSEKHAENAVIFLHGNAASSYLWRHVVPHIEPVARCIIPDLIGMGKSGKSGNGSYRLLDHYKYLTAWFELLNLPKKIIFVGHDWGAALAFHYSYEHQDKIKAIVHAESVVDVIESWDEWPDIEEDIALIKSEEGEKMVLENNFFVETMLPSKIMRKLEPEEFAAYLEPFKEKGEVRRPTLSWPREIPLVKGGKPDVVQIVRNYNAYLRASDDLPKMFIESDPGFLSNAIVEGAKKFPNTEFVKVKGLHFSQEDAPDEMGKYIKSFVERVLKNEQ', 'Met'),
  ('C124A/M295I: RLuc mutant C124A/M295I (protein) MASKVYDPEQRKRMITGPQWWARCKQMNVLDSFINYYDSEKHAENAVIFLHGNAASSYLWRHVVPHIEPVARCIIPDLIGMGKSGKSGNGSYRLLDHYKYLTAWFELLNLPKKIIFVGHDWGAALAFHYSYEHQDKIKAIVHAESVVDVIESWDEWPDIEEDIALIKSEEGEKMVLENNFFVETMLPSKIMRKLEPEEFAAYLEPFKEKGEVRRPTLSWPREIPLVKGGKPDVVQIVRNYNAYLRASDDLPKMFIESDPGFFSNAIVEGAKKFPNTEFVKVKGLHFSQEDAPDEIGKYIKSFVERVLKNEQ', 'Not met'),
  ('C124A/S130A: RLuc mutant C124A/S130A (protein) MASKVYDPEQRKRMITGPQWWARCKQMNVLDSFINYYDSEKHAENAVIFLHGNAASSYLWRHVVPHIEPVARCIIPDLIGMGKSGKSGNGSYRLLDHYKYLTAWFELLNLPKKIIFVGHDWGAALAFHYAYEHQDKIKAIVHAESVVDVIESWDEWPDIEEDIALIKSEEGEKMVLENNFFVETMLPSKIMRKLEPEEFAAYLEPFKEKGEVRRPTLSWPREIPLVKGGKPDVVQIVRNYNAYLRASDDLPKMFIESDPGFFSNAIVEGAKKFPNTEFVKVKGLHFSQEDAPDEMGKYIKSFVERVLKNEQ', 'Not met'),
  ('C124A/L203R: RLuc mutant C124A/L203R (protein) MASKVYDPEQRKRMITGPQWWARCKQMNVLDSFINYYDSEKHAENAVIFLHGNAASSYLWRHVVPHIEPVARCIIPDLIGMGKSGKSGNGSYRLLDHYKYLTAWFELLNLPKKIIFVGHDWGAALAFHYSYEHQDKIKAIVHAESVVDVIESWDEWPDIEEDIALIKSEEGEKMVLENNFFVETMLPSKIMRKLEPEEFAAYREPFKEKGEVRRPTLSWPREIPLVKGGKPDVVQIVRNYNAYLRASDDLPKMFIESDPGFFSNAIVEGAKKFPNTEFVKVKGLHFSQEDAPDEMGKYIKSFVERVLKNEQ', 'Not met'),
  ('E44G/C124A: RLuc mutant E44G/C124A (protein) MASKVYDPEQRKRMITGPQWWARCKQMNVLDSFINYYDSEKHAGNAVIFLHGNAASSYLWRHVVPHIEPVARCIIPDLIGMGKSGKSGNGSYRLLDHYKYLTAWFELLNLPKKIIFVGHDWGAALAFHYSYEHQDKIKAIVHAESVVDVIESWDEWPDIEEDIALIKSEEGEKMVLENNFFVETMLPSKIMRKLEPEEFAAYLEPFKEKGEVRRPTLSWPREIPLVKGGKPDVVQIVRNYNAYLRASDDLPKMFIESDPGFFSNAIVEGAKKFPNTEFVKVKGLHFSQEDAPDEMGKYIKSFVERVLKNEQ', 'Not met'),
  ('A54G/A55G/C124A: RLuc mutant A54G/A55G/C124A (protein) MASKVYDPEQRKRMITGPQWWARCKQMNVLDSFINYYDSEKHAENAVIFLHGNGGSSYLWRHVVPHIEPVARCIIPDLIGMGKSGKSGNGSYRLLDHYKYLTAWFELLNLPKKIIFVGHDWGAALAFHYSYEHQDKIKAIVHAESVVDVIESWDEWPDIEEDIALIKSEEGEKMVLENNFFVETMLPSKIMRKLEPEEFAAYLEPFKEKGEVRRPTLSWPREIPLVKGGKPDVVQIVRNYNAYLRASDDLPKMFIESDPGFFSNAIVEGAKKFPNTEFVKVKGLHFSQEDAPDEMGKYIKSFVERVLKNEQ', 'Met');
